The reported numbers originate from patent US20220356229A1.

Molecular target: T1, MERS full length Spike (MERS-CoV, UniProt K9N5Q8 18-1291)
T1 sequence: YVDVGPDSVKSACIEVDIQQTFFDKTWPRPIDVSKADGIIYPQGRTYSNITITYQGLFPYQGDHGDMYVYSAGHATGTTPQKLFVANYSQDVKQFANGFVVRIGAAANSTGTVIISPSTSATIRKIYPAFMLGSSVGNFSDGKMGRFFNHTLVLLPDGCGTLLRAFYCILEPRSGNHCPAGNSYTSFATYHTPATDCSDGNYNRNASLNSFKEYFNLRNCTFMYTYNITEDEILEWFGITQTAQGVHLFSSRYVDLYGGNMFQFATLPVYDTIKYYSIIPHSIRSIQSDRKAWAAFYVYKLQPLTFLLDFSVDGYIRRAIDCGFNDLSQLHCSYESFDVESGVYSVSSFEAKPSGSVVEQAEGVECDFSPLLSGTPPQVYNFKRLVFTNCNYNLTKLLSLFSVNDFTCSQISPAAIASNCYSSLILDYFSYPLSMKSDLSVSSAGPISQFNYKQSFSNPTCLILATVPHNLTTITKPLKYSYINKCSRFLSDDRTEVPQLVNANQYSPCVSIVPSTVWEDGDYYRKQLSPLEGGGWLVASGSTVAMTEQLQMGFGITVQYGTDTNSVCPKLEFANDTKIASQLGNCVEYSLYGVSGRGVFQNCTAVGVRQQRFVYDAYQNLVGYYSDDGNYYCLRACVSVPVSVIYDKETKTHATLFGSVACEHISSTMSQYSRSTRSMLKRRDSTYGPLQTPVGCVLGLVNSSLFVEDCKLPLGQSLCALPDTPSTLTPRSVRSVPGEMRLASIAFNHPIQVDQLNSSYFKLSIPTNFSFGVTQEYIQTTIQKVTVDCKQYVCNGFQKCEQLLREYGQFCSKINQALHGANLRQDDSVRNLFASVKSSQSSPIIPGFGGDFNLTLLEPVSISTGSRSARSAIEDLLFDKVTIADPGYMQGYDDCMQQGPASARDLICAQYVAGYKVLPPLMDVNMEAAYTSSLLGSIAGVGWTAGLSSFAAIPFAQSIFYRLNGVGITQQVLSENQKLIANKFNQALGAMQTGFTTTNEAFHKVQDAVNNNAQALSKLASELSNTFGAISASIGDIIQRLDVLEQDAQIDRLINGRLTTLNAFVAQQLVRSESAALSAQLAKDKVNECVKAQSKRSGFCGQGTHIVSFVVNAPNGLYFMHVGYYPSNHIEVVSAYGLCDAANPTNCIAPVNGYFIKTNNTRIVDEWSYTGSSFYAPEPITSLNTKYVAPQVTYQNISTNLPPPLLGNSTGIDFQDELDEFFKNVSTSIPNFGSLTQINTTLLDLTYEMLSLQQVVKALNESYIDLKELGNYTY
The binders listed here are annotated with their median fluorescence intensity, fold over isotype control.
measure: median fluorescence intensity, fold over isotype control (fold over isotype)

binder	measurement.unit	test.value
mAb 1538 (antibody, V domains shown) VH: EVQLLESGGGLVQPGGSLRLSCAASGFTFSSYAMSWVRQAPGKGLEWVSGISDSGGSTYYADYVKGRFTISRDNSKDTLYLQMNSLRAEDTAVYYCAKDRGNEYALTHYYYYAMDVWGQGTTVTVSS VL: DIQMTQSPSSLSASVGDRVTITCRASQSISSYLNWYQQKPGKAPKLLIYAAYSLQSGVPSRFSGGGSGTDFTLTISSLQPEDFATYFCQQSYSTPITFGQGTRLEIKR	fold over isotype	0.95
mAb 1149 (antibody, V domains shown) VH: QVQLVQSGAEVKKPGASVKVSCKASGYTFASYDINWVRQATGQGPEWMGWMIPNIGNTGYAQKFQGRVTMTRNTSISTAYMELSSLTSEDTAVYYCARVSRLFNDFGLRHEAPVDFWGQGTRVTVSS VL: QSVLTQPPSVSGAPGQRVTISCTGSSSNIGAGYDVHWYQQLPGTAPKLLIYGYSSRPSGVPDRFSGSKSGTSASLAITGLQAEDEADYYCQSYDSSLSVLFGGGTKLTVLG	fold over isotype	1.04
mAb 1037 (antibody, V domains shown) VH: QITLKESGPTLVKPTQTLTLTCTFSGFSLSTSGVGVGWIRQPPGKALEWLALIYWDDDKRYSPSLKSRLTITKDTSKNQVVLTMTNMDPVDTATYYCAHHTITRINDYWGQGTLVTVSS VL: QSALTQPASVSGSPGQSITISCTATSSDVGAYNYVSWYQQHPGKAPKLMIYDVSKRPSGVSNRFSGSKSGNTASLTISGLQAEDEADYYCSSYTSSSTVFGGGTKLTVLG	fold over isotype	1.06
